Molecular target: T1, 4H3865-AA
T1 chain: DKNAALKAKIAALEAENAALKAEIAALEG
Assay: two-hybrid library CCmax;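 further: natural log of median RNA to DNA barcode read ratio; higher means stronger binding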
Details: mean of both orientations
# if measured interaction score < -0.3: rule met  # else: rule not met

Check out these entries, answers already filled in.
• DKIAALKAEIAALEAKNAALKAENAALKG [4H2620-AA] = rule met
• DENAALKAKIAALKAENAALEAEIAALKG [4H1874-AA] = rule not met
• DKIAALKAKNAALKAEIAALEAEIAALEG [4H3009-AA] = rule met
• DKNAALEAKIAALEAKNAALEAEIAALKG [4H3378-AA] = rule met
• DKIAALEAENAALEAENAALEAKIAALKG [4H2198-AA] = rule met

Q. # check: interaction score < -0.3 for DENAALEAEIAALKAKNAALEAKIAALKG [4H1142-AA]
A. rule not met

Q. Is interaction score of DEIAALEAENAALEAKIAALKAKIAALKG [4H174-AA] strictly below -0.3?
A. rule not met

Q. Quick check: interaction score of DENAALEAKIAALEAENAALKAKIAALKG [4H1310-AA] under -0.3?
A. rule not met

Q. Problem: For the binder DKNAALKAEIAALEAENAALEAKIAALKG [4H3606-AA] , is interaction score under -0.3?
A. rule not met

Q. Given the entry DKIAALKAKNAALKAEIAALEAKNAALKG [4H3016-AA] , would its reported interaction score be below -0.3?
A. rule met

Q. Report whether reported interaction score is lower than -0.3 (strictly) for DKIAALKAKIAALKAENAALKAENAALEG [4H2907-AA]
A. rule met

Q. Find out if reported interaction score for DEIAALEAKIAALKAENAALEAENAALKG [4H340-AA] is less than -0.3
A. rule met

Q. Identify whether the binder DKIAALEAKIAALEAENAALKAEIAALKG [4H2330-AA] records interaction score below -0.3.
A. rule not met

Q. Consider the binder DENAALKAKIAALKAEIAALEAKNAALKG [4H1864-AA] . Is its interaction score strictly less than -0.3?
A. rule met

Q. Below -0.3 on interaction score? Entry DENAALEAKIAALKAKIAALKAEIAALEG [4H1385-AA]
A. rule met
